Each recorded value in this set is attributed to patent US8242118B2.

property-name: melting point (°C)

Record excerpt, results attached:
Cl.O=[N+]([O-])c1ccc(Oc2cccc(Br)c2)c(S(=O)(=O)N2CCNCC2)c1	119
COCCCN1CCN(S(=O)(=O)c2cc(C#N)ccc2Oc2cc(Cl)cc(Cl)c2)CC1	240
O=[N+]([O-])c1ccc(Oc2cc(Cl)cc(Cl)c2)c(S(=O)(=O)N2CC3CCCNC3C2)c1 (stereo not drawn)	170
Cl.O=[N+]([O-])c1ccc(Oc2cc(Cl)cc(Cl)c2F)c(S(=O)(=O)N2CCNCC2)c1	263
CN(C)c1cccc(Oc2ccc([N+](=O)[O-])cc2S(=O)(=O)N2CCNCC2)c1.Cl	182
Cc1cc(Oc2cc(Cl)cc(Cl)c2)c(S(=O)(=O)N2CCNCC2)cc1[N+](=O)[O-].Cl	168

I = COc1cc(Oc2cc(C)cc(C)c2)c(S(=O)(=O)N2CCNCC2)cc1[N+](=O)[O-].Cl
II = CN(C)CCN(C)S(=O)(=O)c1cc([N+](=O)[O-])ccc1Sc1cc(Cl)cc(Cl)c1
Between these two entries, I and II , state which has the higher melting point. Use the label to indicate which entry you chose.
I
(I: 188 °C, II: 102 °C)
